Ki values for 5-hydroxytryptamine receptor 2A (Homo sapiens), compiled from several publications.
Decision: Ki beneath 20 nM gives 1.0; Ki meeting or exceeding 20 nM gives 0.0.

Query: Bench note: check whether CN1CCN(Cc2cncc(-c3ccc4[nH]ncc4c3)c2)[C@@H](c2ccc(F)cc2)C1 shows Ki below 20 nM
Response: 1.0

Query: Bench note: check whether CC(=O)N[C@H]1CC[C@H](CCN2CCN(c3nccc4ccoc34)CC2)CC1 shows Ki below 20 nM
Response: 1.0

Query: Bench note: check whether O=c1c(N2CCN(CCc3ccccc3)CC2)nccn1CCOc1cc(F)c(F)cc1F shows Ki below 20 nM
Response: 1.0

Query: Bench note: check whether CC(=O)N[C@H]1CC[C@H](CCN2CCN(c3nccc4ccsc34)CC2)CC1 shows Ki below 20 nM
Response: 1.0

Query: Bench note: check whether O=CN[C@H]1CC[C@H](CCN2CCN(c3nccc4c3OCC4)CC2)CC1 shows Ki below 20 nM
Response: 0.0
